Data origin: patent US10517889B2

Entries and their measured % Inhibition follow.
System: human SMAD7 mRNA
Experiment: Antisense inhibition of human SMAD7 mRNA expression in Hep3B cells by 3-10-3 cEt gapmers, 10,000 nM, electroporation (Example 2)
Format: cell-based
Details: Hep3B cells, 10,000 nM antisense oligonucleotide, electroporation, approximately 24 hours, RT-PCR primer probe set RTS5062, relative to untreated control cells
Strand notation (5' to 3'): a small letter for the sugar, then the base; units joined by * are phosphorothioate-linked, units joined directly phosphodiester-linked; [ ] holds rarer units or linkages, { } end groups; capitals alone tell only the bases. k = constrained ethyl (cEt); [5mC] = 5-methylcytosine; d = 2'-deoxy (DNA)
# number only, unit % dropped from output

The cases that follow already have their % Inhibition on record.
>>> df
                                  substance      study_system  measured_result
0  798875 (k[5mC]*kG*k[5mC]*dT*dG*d[5mC]*dA*dG*dG*d[5mC]*dT*dG*dT*kA*k[5mC]*kG; antisense) [compound 798875]  human SMAD7 mRNA               58
1  798896 (kG*kG*kG*dT*dG*dT*dA*dG*d[5mC]*dA*d[5mC]*dT*dG*kG*k[5mC]*k[5mC]; antisense) [compound 798896]  human SMAD7 mRNA               46
2  799930 (antisense kT*k[5mC]*kT*dT*dT*dT*dA*dT*d[5mC]*dA*d[5mC]*dT*dG*kT*k[5mC]*kA) [compound 799930]  human SMAD7 mRNA                8
3  798912 (kT*k[5mC]*k[5mC]*dG*d[5mC]*dA*d[5mC]*dG*d[5mC]*dG*dG*d[5mC]*dT*kA*k[5mC]*k[5mC]; antisense) [compound 798912]  human SMAD7 mRNA               22

Item under review: 799873 (kA*kA*kA*dA*dG*dT*dT*dA*dA*dT*d[5mC]*dA*dT*kT*kA*k[5mC]; antisense) [compound 799873] . Reported % Inhibition?
0

Next record, please: 799840 (antisense kA*kG*kG*dG*dA*dA*dG*dT*dT*dA*dG*dT*dG*kT*kT*kT) [compound 799840]
22

###

Entries and their measured % Inhibition follow.
Test system: human SMAD7 mRNA
Experiment: Antisense inhibition of human SMAD7 mRNA expression in Hep3B cells by 3-10-3 cEt gapmers, 10,000 nM, electroporation (Example 2)
Type: cell-based
Conditions: Hep3B cells, electroporation with 10,000 nM antisense oligonucleotide, approximately 24 hours, SMAD7 mRNA by RT-PCR (RTS5062), relative to untreated control cells
Strand notation (5' to 3'): a small letter for the sugar, then the base; units joined by * are phosphorothioate-linked, units joined directly phosphodiester-linked; [ ] holds rarer units or linkages, { } end groups; capitals alone tell only the bases. k = constrained ethyl (cEt); [5mC] = 5-methylcytosine; d = 2'-deoxy (DNA)
# number only, unit % dropped from output

>>> df
                                  substance  result_units  measured_result
0  798901 (k[5mC]*k[5mC]*kT*d[5mC]*dT*dA*dG*d[5mC]*d[5mC]*dA*dG*d[5mC]*dA*k[5mC]*kG*kG; antisense) [compound 798901]             %               30
1  799371 (antisense k[5mC]*k[5mC]*k[5mC]*dT*dT*dT*d[5mC]*d[5mC]*dA*dT*dT*dA*dT*kT*k[5mC]*k[5mC]) [compound 799371]             %               28
2  830121 (AGAATCAAGCCCTGGC; 3-10-3 cEt gapmer, further chemistry not given here) [compound 830121]             %               69
3  830102 (kA*kG*k[5mC]*d[5mC]*d[5mC]*dG*d[5mC]*dT*d[5mC]*dT*d[5mC]*dA*dG*k[5mC]*k[5mC]*kA; antisense) [compound 830102]             %               43
4  830186 (antisense kA*kG*kG*dT*d[5mC]*d[5mC]*dA*dG*dG*dG*dT*d[5mC]*d[5mC]*kT*k[5mC]*k[5mC]) [compound 830186]             %               50
5  830113 (kA*kG*k[5mC]*d[5mC]*d[5mC]*d[5mC]*dA*dT*dT*d[5mC]*dA*dT*dT*kA*kA*kG; antisense) [compound 830113]             %               36
6  798900 (k[5mC]*k[5mC]*kA*dG*d[5mC]*dA*d[5mC]*dG*dG*dG*d[5mC]*dA*dG*k[5mC]*kT*kG; antisense) [compound 798900]             %                0
7  798715 (antisense kG*k[5mC]*k[5mC]*d[5mC]*dG*dG*dG*d[5mC]*d[5mC]*dG*d[5mC]*d[5mC]*dG*k[5mC]*k[5mC]*kA) [compound 798715]             %                0
8  830043 (kT*kT*kG*dG*d[5mC]*dA*dG*dG*dT*dT*dA*dA*dT*k[5mC]*kA*k[5mC]; antisense) [compound 830043]             %               45
9  798880 (kT*k[5mC]*k[5mC]*dA*d[5mC]*dG*dG*d[5mC]*dT*dG*d[5mC]*dT*dG*k[5mC]*kA*kT; antisense) [compound 798880]             %               37

Item under review: 798919 (kT*kG*k[5mC]*dT*d[5mC]*dA*dG*d[5mC]*dT*d[5mC]*dA*d[5mC]*dG*k[5mC]*kT*k[5mC]; antisense) [compound 798919] . Reported % Inhibition?
45

Next record, please: 799414 (antisense k[5mC]*kA*kA*dA*dA*d[5mC]*d[5mC]*dA*dG*d[5mC]*d[5mC]*d[5mC]*d[5mC]*kA*kG*kA) [compound 799414]
34

Next record, please: 798678 (antisense k[5mC]*kG*k[5mC]*dA*d[5mC]*dA*d[5mC]*d[5mC]*dA*dT*dG*dA*dA*kG*kA*kA) [compound 798678]
45

Next record, please: 830136 (antisense kG*kA*kA*dA*dG*dT*dA*d[5mC]*dA*dA*dT*d[5mC]*dT*k[5mC]*k[5mC]*kT) [compound 830136]
64

Next record, please: 799396 (antisense kT*kG*kT*dT*dA*d[5mC]*dA*dA*dA*dT*dA*d[5mC]*dA*kG*kA*kG) [compound 799396]
69

Next record, please: 799395 (antisense kT*kT*kA*d[5mC]*dA*dA*dA*dT*dA*d[5mC]*dA*dG*dA*kG*kA*kG) [compound 799395]
62

Next record, please: 798832 (kA*kT*k[5mC]*dA*dT*dA*dG*dA*dA*dG*dA*dT*dA*kT*k[5mC]*k[5mC]; antisense) [compound 798832]
41

Next record, please: 800100 (antisense kT*kG*k[5mC]*dA*dG*dA*dG*d[5mC]*dA*d[5mC]*dA*dG*dA*kT*kG*k[5mC]) [compound 800100]
16

Next record, please: 798667 (kT*kG*kG*d[5mC]*dA*dT*dG*d[5mC]*dG*d[5mC]*d[5mC]*dA*dG*kT*k[5mC]*kT; antisense) [compound 798667]
21

Next record, please: 798722 (antisense k[5mC]*kT*kT*dG*d[5mC]*d[5mC]*d[5mC]*dA*dG*dG*d[5mC]*dA*dG*k[5mC]*kA*kT) [compound 798722]
0

Next record, please: 798817 (kG*k[5mC]*k[5mC]*dA*d[5mC]*d[5mC]*dA*d[5mC]*dG*d[5mC]*dA*d[5mC]*d[5mC]*kA*kG*kT; antisense) [compound 798817]
26

Next record, please: 772610 (kG*kG*k[5mC]*dA*dA*dA*dA*dG*d[5mC]*d[5mC]*dA*dT*dT*k[5mC]*k[5mC]*k[5mC]; antisense) [compound 772610]
34

Next record, please: 799487 (antisense kA*kA*kA*d[5mC]*dA*dT*dA*dA*dT*dG*dA*d[5mC]*dT*kT*kA*kT) [compound 799487]
0

###

Experiment: Body and organ weights after subcutaneous administration in beagle dogs (Example 8)
Type: in vivo
Conditions: 30 mg/kg subcutaneous days 1, 3, 5, 8, 15, 22, 29, end of study
property: Spleen weight

>>> df
                                  substance       property  measured_result
0  830037 (antisense CTATTGGCTGATCTGG; 3-10-3 cEt gapmer, further chemistry not given here) [compound 830037]  Spleen weight           23.7 g
1  829994 (GGAGGCAGGGCCGCGA; 3-10-3 cEt gapmer, further chemistry not given here) [compound 829994]  Spleen weight           22.8 g

Item under review: 790615 (CCAATGAGAATGCTTC; 3-10-3 cEt gapmer, further chemistry not given here) [compound 790615] . Reported Spleen weight?
32.3 g
